This collection of values is drawn from patent US20080207501A1.

Molecular target: amylin receptor (nucleus accumbens membranes prepared from rat brain) (rat, UniProt P32214 25-516)
Sequence (P32214 25-516): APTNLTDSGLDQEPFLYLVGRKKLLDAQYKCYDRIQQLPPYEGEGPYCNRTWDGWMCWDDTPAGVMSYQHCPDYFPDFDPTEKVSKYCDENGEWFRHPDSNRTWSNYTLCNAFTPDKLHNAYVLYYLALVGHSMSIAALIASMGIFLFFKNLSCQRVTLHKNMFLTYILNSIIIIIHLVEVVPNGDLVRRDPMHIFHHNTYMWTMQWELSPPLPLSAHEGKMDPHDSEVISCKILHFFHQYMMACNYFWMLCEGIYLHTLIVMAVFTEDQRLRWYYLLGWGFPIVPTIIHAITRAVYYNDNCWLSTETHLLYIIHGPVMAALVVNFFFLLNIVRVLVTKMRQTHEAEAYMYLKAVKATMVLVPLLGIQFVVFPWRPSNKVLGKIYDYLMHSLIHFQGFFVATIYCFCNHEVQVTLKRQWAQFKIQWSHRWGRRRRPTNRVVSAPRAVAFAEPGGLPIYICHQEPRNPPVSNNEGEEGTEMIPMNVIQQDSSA
Assay: radioligand displacement, 125I-rat amylin, rat nucleus accumbens membranes
Ends that are not written are not given here.
Parameter pIC50: see the listing below.
Just the number, please; pIC50 means minus log10 of the concentration in mol/L.

Use the examples below as a reference point.
binder	numeric-result
TQAQLLRVGMVLGTMQVQNLSHRLWQLMGPAGRQDSAPVDPSSPHSY-NH2 [AFP-6 analog SEQ ID NO: 25]	6.86
VGCGNLSTCQVQNLSHRLWQLRQDSAPVDPSSPHSY-NH2 (ends and bridges not checked) [AFP-6 analog SEQ ID NO: 29]	8.12
CVLGTCQVQNLSHRLWQLMGPAGRQDSAPVDPSSPHSY-NH2 (ends and bridges not checked) [AFP-6 analog SEQ ID NO: 12]	8.01
GMVLGTMQVQNLSHRLWQLMGPAGRQDSAPVDPSSPHSY-NH2 [AFP-6 analog SEQ ID NO: 26]	7.32
TQAQLLRVGCVLGTCQVQNLSHRLWQLMGPAGRQESAPVEPSSPHSY-NH2 (ends and bridges not checked) [AFP-6 analog SEQ ID NO: 32]	7.80

# pIC50 of r/h Adrenomedullin (ends and bridges not checked; cysteine pairing not given here) peptide: YRQSMNNFQGLRSFGCRFGTCTVQKLAHQIYQFTDKDKDNVAPRSKISPQGY = 6.91
